- STUDY SYSTEM: T1, human IL-12Rβ2 (human, UniProt Q99665 24-862)
- T1 construct: Expressed on HEK293T cells transiently transfected with a pcDNA3 plasmid (Genscript clone OHu21785); also called hIL-12RB2; IL-12 receptor β2 subunit
- T1 sequence: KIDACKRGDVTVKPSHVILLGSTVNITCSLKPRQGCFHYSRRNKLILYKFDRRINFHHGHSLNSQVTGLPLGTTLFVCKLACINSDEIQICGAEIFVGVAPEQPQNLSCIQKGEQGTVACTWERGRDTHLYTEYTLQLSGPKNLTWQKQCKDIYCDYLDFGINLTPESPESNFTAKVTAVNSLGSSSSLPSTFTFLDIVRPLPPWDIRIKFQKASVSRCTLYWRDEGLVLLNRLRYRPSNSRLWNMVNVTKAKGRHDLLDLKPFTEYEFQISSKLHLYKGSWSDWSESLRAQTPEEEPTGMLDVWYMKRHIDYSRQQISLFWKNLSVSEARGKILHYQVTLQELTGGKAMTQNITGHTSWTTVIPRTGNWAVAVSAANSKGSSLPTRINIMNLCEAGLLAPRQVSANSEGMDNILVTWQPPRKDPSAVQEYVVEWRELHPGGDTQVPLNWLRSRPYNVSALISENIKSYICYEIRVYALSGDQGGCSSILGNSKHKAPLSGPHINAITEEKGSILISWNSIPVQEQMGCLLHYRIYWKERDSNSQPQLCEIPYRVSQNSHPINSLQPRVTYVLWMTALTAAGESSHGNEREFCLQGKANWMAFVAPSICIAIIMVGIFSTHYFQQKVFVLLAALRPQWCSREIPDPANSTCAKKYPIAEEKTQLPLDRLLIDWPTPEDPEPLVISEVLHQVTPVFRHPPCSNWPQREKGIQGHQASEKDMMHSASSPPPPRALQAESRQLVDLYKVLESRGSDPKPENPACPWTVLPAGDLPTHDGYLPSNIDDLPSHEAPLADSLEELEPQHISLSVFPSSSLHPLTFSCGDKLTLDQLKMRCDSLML
- PROCEDURE SUMMARY: flow cytometry, P.E. on transfected HEK293T cells
ASSAY METRIC: % cells bound (%)

| BINDER | ASSAY METRIC | DATA VALUE |
| --- | --- | --- |
| anti-IL-12Rβ2 VHH clone 3CAHS102 (VHH, not shown: small tags and cut ends, periplasmic extract) VHH: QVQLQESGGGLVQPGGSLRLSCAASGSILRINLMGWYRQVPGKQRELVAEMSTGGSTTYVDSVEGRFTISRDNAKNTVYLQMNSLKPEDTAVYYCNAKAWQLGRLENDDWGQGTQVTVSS | % cells bound | 44.7 |
| anti-IL-12Rβ2 VHH clone 3CRHS77 (VHH, not shown: small tags and cut ends, periplasmic extract) VHH: QVQLQESGGGLVQAGGSLRLSCTASGHTFSSYTTIGWFRQAPGKEREFVAAIGWSGDITDYADAVKGRFTISRHNVENTVYLQMNSLNPEDTAVYYCARGYSEYGVLSRNRGLYAYWGQGTQVTVSS | % cells bound | 37.7 |
| anti-IL-12Rβ2 VHH clone 3CRHS109 (VHH, not shown: small tags and cut ends, periplasmic extract) VHH: QVQLQESGGGLVQPGGSLRLSCAASGFTFSTSGMHWFRQAPGKGLEWVSSIGIIVDSSYYASSVKGRFTISRDNAKNTLYLHMNSLKSEDTAVYYCSKDVTGSSRGQGTQVTVSS | % cells bound | 46.5 |
| anti-IL-12Rβ2 VHH clone 3CAHS171 (VHH, not shown: small tags and cut ends, periplasmic extract) VHH: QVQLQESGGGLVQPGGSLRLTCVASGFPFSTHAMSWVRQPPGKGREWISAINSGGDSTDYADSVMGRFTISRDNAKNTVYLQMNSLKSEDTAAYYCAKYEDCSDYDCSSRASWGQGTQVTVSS | % cells bound | 47.5 |
